# Study System: Cyclin-dependent kinase 4 (Homo sapiens);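 note: enzyme tested as the CDK4–cyclin D complex, with the value reported as mean percent inhibition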
# Assay Context: at 1 µM
Test Readout: inhibition
Your reply should be a number followed by the unit it is expressed in.

Example results:
1. CCOc1nccc2c1nc(-c1nonc1N)n2CC
1.83%
2. CN(c1ccc(NC(=O)Nc2ccc(OC(F)(F)F)cc2)cc1)c1ccnc(Nc2cccc(S(N)(=O)=O)c2)n1
6.76%
3. CN(C)CCCn1c(-c2nonc2N)nc2cnccc21
4.13%

## Input Reported inhibition for Nc1nccc(C#Cc2cncnc2Nc2ccc(OCc3cccc(F)c3)c(Cl)c2)n1 : what is it?
## Output 4.61%

## Input Quick one: O=C(Nc1ccc(Oc2ccc3[nH]c(NC(=O)c4ccco4)nc3c2)cc1)Nc1cc(C(F)(F)F)ccc1F
## Output -2.74%

## Input Quick one: COc1cccc(-n2nc(C)c3c(N/N=C(\C)c4ccncc4)ncnc32)c1
## Output 2.41%

## Input Quick one: ON=C1CCc2cc(-c3nc(C4CCNCC4)[nH]c3-c3ccncc3)ccc21
## Output 2.19%

## Input Quick one: NS(=O)(=O)c1ccc(N/N=C2\C(=O)Nc3ccc(Cl)cc32)cc1
## Output 28%

## Input Quick one: CCS(=O)(=O)c1ccc(OC)c(Nc2nccc(N(C)c3ccc4c(C)n[nH]c4c3)n2)c1
## Output 4.42%

## Input Quick one: Nc1nccc(-c2c(-c3ccc(F)cc3)ncn2CCCN2CCOCC2)n1
## Output 2.9%

## Input Quick one: Nc1ccc(C#Cc2cncnc2Nc2ccc(OCc3cccc(F)c3)c(Cl)c2)cc1
## Output 3.75%

## Input Quick one: CN(C)C(=O)O[C@H]1CN[C@H](C#Cc2cc3ncnc(Nc4ccc(OCc5cccc(F)c5)c(Cl)c4)c3s2)C1
## Output 1.04%
